Source listed as patent US20210253718A1.

This listing pairs binders with measured median fluorescence.
Biological target: T1, FZD9 cysteine-rich domain (CRD), MYC-tagged and GPI-anchored on CHO cells (human, UniProt O00144 35-161, GPI anchor)
T1 construct: also called FZD9 CRD; CHO-myc-FZDGPI; not shown: MYC tag and GPI anchor signal
T1 sequence: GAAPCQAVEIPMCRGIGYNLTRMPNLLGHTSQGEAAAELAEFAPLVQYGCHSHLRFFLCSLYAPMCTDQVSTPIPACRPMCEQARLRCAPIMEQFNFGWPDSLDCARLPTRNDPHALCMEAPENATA
Test: flow cytometry, CHO-CRD cells;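 note: flow cytometry of Fab binding to CHO cells overexpressing a Frizzled CRD, with binding defined as median fluorescence over twice that of CHO cells lacking any Frizzled CRD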
Number only, no unit.

INSERT INTO results (binder, observed) VALUES
  ('Fab-2911 (Fab, V domains shown, Fab; also called Fv-2911) VH: EVQLVESGGGLVQPGGSLRLSCAASGFNIYYSSMHWVRQAPGKGLEWVAYIYPYSGYTSYADSVKGRFTISADTSKNTAYLQMNSLRAEDTAVYYCARYFWWYGFDYWGQGTLVTVSS VL: DIQMTQSPSSLSASVGDRVTITCRASQSVSSAVAWYQQKPGKAPKLLIYSASSLYSGVPSRFSGSRSGTDFTLTISSLQPEDFATYYCQQGPWYPFTFGQGTKVEIK', 4.1),
  ('Fab-2905 (Fab, V domains shown, Fab; also called Fv-2905) VH: EVQLVESGGGLVQPGGSLRLSCAASGFNLSYYYMHWVRQAPGKGLEWVASIYSSYSYTSYADSVKGRFTISADTSKNTAYLQMNSLRAEDTAVYYCARSGYALDYWGQGTLVTVSS VL: DIQMTQSPSSLSASVGDRVTITCRASQSVSSAVAWYQQKPGKAPKLLIYSASSLYSGVPSRFSGSRSGTDFTLTISSLQPEDFATYYCQQSSWYYGYPFTFGQGTKVEIK', 3.25);

# next binder below
Answer with reported median fluorescence of Fab-2918 (Fab, V domains shown, Fab; also called Fv-2918) VH: EVQLVESGGGLVQPGGSLRLSCAASGFNLSYSSIHWVRQAPGKGLEWVASIYSSYSSTSYADSVKGRFTISADTSKNTAYLQMNSLRAEDTAVYYCARFGYWAIDYWGQGTLVTVSS VL: DIQMTQSPSSLSASVGDRVTITCRASQSVSSAVAWYQQKPGKAPKLLIYSASSLYSGVPSRFSGSRSGTDFTLTISSLQPEDFATYYCQQAFGASLFTFGQGTKVEIK
3.11
